assay: Clearance in rat at 1 mg/kg, iv; assay type: ADME, organism-based; set-up: dose 1 mg/kg, route intravenous; settings: in vivo
Below: a set of entries, each annotated with reported clearance.
Lab book: enter the figure in L/h/kg, no units written.

>>> result("C[C@@H]1CN(C(=O)[C@@H]2CN(C(C)(C)C)C[C@H]2c2ccc(F)cc2F)C[C@H](C)[C@@]1(O)c1ccccc1.Cl")
5.34

Please turn your attention to the following entry.
Dear colleague, I am looking for the recorded clearance of the following compound: "C[C@@H]1CN(C(=O)[C@@H]2CN(C(C)(C)C)C[C@H]2c2ccc(F)cc2F)C[C@H](C)[C@@]1(O)c1ccc(F)cc1.Cl"
2.04

###

assay: Clearance in dog plasma at 0.05 mg/kg, iv; type: ADME, organism-based, Canis lupus familiaris; set-up: dose 0.05 mg/kg, route intravenous
MEASURED_METRIC: clearance (mL/min/kg)
Give a bare numeral; the unit mL/min/kg is implied.

Entry "C[C@@H]1CN(C(=O)[C@@H]2CN(C(C)(C)C)C[C@H]2c2ccc(F)cc2F)C[C@H](C)[C@@]1(O)c1ccc(F)cc1.Cl" : reported clearance = ?
12

###

Quick reference: Papp A→B of the listed items.
test: Apparent Permeability from apical to basolateral side of MDCK2 cells over expressing MDR1; format: ADME, cell-based, Canis lupus familiaris; details: dog, MDCK-MDR1; read-out: permeability
Give the number; ×10⁻⁶ cm/s is assumed, so skip it.

>>> result("C[C@@H]1CN(C(=O)[C@@H]2CN(C(C)(C)C)C[C@H]2c2ccc(F)cc2F)C[C@H](C)[C@@]1(O)c1ccc(F)cc1.Cl")
26

In the following, a different molecule is considered.
# input molecule: "C[C@@H]1CN(C(=O)[C@@H]2CN(C(C)(C)C)C[C@H]2c2ccc(F)cc2F)C[C@H](C)[C@@]1(O)c1ccccc1.Cl" ; wanted: its Papp A→B
41

###

assay: Terminal half life in human at 195 mg, po; type: ADME, organism-based; conditions: in vivo, read-out: beta t1/2 (converted)
MEASURED_METRIC: half-life (h)
All answers are understood in h, so give the number only.

Query (molecule): "C[C@@H]1CN(C(=O)[C@@H]2CN(C(C)(C)C)C[C@H]2c2ccc(F)cc2F)C[C@H](C)[C@@]1(O)c1ccccc1.Cl" ; field requested: half-life
12

###

target: Melanocortin receptor 3 (Homo sapiens, UniProt P41968); experiment: Agonist activity at human recombinant MC3 receptor expressed in CHO cells assessed as cAMP accumulation by enzyme fragment complementation assay
Sequence (P41968 whole entry, the tested form may be a part): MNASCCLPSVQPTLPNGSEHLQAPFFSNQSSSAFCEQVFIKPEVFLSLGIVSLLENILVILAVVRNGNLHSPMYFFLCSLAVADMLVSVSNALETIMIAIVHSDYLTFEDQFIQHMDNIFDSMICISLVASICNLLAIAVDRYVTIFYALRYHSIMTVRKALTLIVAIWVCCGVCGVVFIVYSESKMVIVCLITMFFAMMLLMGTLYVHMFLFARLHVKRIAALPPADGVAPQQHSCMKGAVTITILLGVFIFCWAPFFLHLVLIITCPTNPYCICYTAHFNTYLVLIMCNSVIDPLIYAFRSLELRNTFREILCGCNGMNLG
MEASURED_METRIC: EC50

// worked examples, EC50 included
>>> result("C[C@@H]1CN(C(=O)[C@@H]2CN(C)C[C@H]2c2ccc(F)cc2F)C[C@H](C)[C@@]1(O)c1ccccc1")
"> 19.1 µM"
>>> result("CCCCN1C[C@H](C(=O)N2C[C@@H](C)[C@](O)(c3ccccc3)[C@@H](C)C2)[C@@H](c2ccc(F)cc2F)C1")
"> 5.72 µM"

Please turn your attention to the following entry.
Which EC50 is reported with Melanocortin receptor 3 (Homo sapiens, UniProt P41968) for this entry: "CCC[C@@]1(O)[C@H](C)CN(C(=O)[C@@H]2CN(C(C)(C)C)C[C@H]2c2ccc(F)cc2F)C[C@@H]1C" ?
> 24.7 µM

###

assay: AUC (0 to infinity) in dog at 0.14 mg/kg, sublingual; type: ADME, organism-based, Canis lupus familiaris; design: time infinity, route sublingual, dose 0.14 mg/kg; settings: plasma
MEASURED_METRIC: AUC(0-inf) (ng·h/mL)
Write the number in ng·h/mL without appending the unit.

May I ask what AUC(0-inf) has been recorded for "C[C@@H]1CN(C(=O)[C@@H]2CN(C(C)(C)C)C[C@H]2c2ccc(F)cc2F)C[C@H](C)[C@@]1(O)c1ccccc1.Cl" ?
17

###

assay: Peak plasma concentration in rat at 195 mg, po; type: ADME, organism-based
MEASURED_METRIC: Cmax (ng/mL)
# value in ng/mL; strip the unit string

I have this compound here, "C[C@@H]1CN(C(=O)[C@@H]2CN(C(C)(C)C)C[C@H]2c2ccc(F)cc2F)C[C@H](C)[C@@]1(O)c1ccccc1.Cl" , and I need its recorded Cmax.
30

###

Collected logD values appear next to each entry.
assay: Lipophilicity, log D at pH 7.4; format: physicochemical; details: buffer
Answer field: number only, no words.

Quick check: logD of "C[C@@H]1CN(C(=O)[C@@H]2CN(C(C)(C)C)C[C@H]2c2ccc(F)cc2F)C[C@H](C)[C@@]1(O)C1CC1" ?
2.2

###

assay: Fraction unbound in dog plasma; assay type: ADME, cell-free, Canis lupus familiaris
# reported fraction unbound; entries follow
The reply should be a number, written without any unit.

>>> result("C[C@@H]1CN(C(=O)[C@@H]2CN(C(C)(C)C)C[C@H]2c2ccc(F)cc2F)C[C@H](C)[C@@]1(O)c1ccccc1.Cl")
0.15

Pending compound:
I am curious: what fraction unbound value has been reported for "C[C@@H]1CN(C(=O)[C@@H]2CN(C(C)(C)C)C[C@H]2c2ccc(F)cc2F)C[C@H](C)[C@@]1(O)c1ccc(F)cc1.Cl" ?
0.09

###

assay: Intrinsic clearance in human liver microsome measured per mg of protein; format: ADME; conditions: liver microsomes
Below is a list of entries, each paired with its recorded microsomal CLint value.
# value in µL/min/mg; strip the unit string

Field: example entries. Status: answers known.
>>> result("C[C@@H]1CN(C(=O)[C@H]2CN(C3CCOCC3)C[C@@H]2c2ccc(F)cc2F)C[C@H](C)[C@@]1(O)c1ccccc1")
151
>>> result("C[C@@H]1CN(C(=O)[C@@H]2CN(C(C)(C)C)C[C@H]2c2ccc(F)cc2F)C[C@H](C)[C@@]1(O)c1ccc(Cl)cc1")
16
>>> result("C[C@@H]1CN(C(=O)[C@@H]2CN(C(C)(C)C)C[C@H]2c2ccc(F)cc2F)C[C@H](C)[C@@]1(O)C1CC1")
14
>>> result("C[C@@H]1CN(C(=O)[C@H]2CN(C3CC3)C[C@@H]2c2ccc(F)cc2F)C[C@H](C)[C@@]1(O)c1ccccc1")
342

Please look at the following compound next.
Which microsomal CLint is listed for "C[C@@H]1CN(C(=O)[C@@H]2CN(C(C)(C)C)C[C@H]2c2ccc(F)cc2F)C[C@H](C)[C@@]1(O)c1cccc(F)c1" ?
52

###

assay: Cmax in dog at 0.14 mg/kg, intranasal; assay type: ADME, organism-based, Canis lupus familiaris; set-up: route nasal, dose 0.14 mg/kg; conditions: in vivo, inhaled or intranasal
MEASURED_METRIC: Cmax (ng/mL)
Express your answer in ng/mL, writing the number without its unit.

Could you share which Cmax value was measured for "C[C@@H]1CN(C(=O)[C@@H]2CN(C(C)(C)C)C[C@H]2c2ccc(F)cc2F)C[C@H](C)[C@@]1(O)c1ccccc1.Cl" ?
2.6

###

biological target: UniProt:Q12809; assay: Displacement of [3H]dofetilide from human ERG expressed in CHO cells by patch clamp method
Sequence (Q12809 whole entry): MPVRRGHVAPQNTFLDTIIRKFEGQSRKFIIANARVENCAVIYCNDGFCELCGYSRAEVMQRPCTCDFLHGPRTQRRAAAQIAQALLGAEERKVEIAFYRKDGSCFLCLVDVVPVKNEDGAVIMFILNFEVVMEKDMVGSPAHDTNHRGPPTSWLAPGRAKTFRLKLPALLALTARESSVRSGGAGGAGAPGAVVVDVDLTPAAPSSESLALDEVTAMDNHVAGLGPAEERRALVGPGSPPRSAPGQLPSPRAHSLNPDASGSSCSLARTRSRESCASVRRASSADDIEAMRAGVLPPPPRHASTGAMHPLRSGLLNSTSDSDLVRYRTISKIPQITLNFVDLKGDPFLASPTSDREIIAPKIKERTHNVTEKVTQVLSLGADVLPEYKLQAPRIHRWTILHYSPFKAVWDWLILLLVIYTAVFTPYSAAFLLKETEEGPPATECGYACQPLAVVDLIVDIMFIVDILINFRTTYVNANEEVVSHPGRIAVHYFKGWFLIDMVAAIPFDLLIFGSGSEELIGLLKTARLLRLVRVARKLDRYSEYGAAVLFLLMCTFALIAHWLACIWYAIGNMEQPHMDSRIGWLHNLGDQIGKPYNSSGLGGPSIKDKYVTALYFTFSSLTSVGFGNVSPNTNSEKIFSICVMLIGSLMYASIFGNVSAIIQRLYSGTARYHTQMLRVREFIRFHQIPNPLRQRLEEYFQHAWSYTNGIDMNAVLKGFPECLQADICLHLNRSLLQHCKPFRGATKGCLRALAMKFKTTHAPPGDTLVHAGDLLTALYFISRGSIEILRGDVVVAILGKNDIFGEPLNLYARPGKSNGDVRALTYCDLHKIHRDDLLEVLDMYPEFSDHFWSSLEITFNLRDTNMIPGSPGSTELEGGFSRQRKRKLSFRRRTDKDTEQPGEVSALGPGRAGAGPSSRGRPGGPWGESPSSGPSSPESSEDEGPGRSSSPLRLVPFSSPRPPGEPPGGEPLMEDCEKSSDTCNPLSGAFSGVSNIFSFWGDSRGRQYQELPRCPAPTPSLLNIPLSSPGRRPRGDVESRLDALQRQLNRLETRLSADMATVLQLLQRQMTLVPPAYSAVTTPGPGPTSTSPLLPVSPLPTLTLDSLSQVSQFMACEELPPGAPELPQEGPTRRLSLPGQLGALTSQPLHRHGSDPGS
Catalogue of pKi values
The read-out pKi is expressed as -log10 of concentration in moles per litre.

>>> result("C[C@@H]1CN(C(=O)[C@H]2CN(c3cccnc3)C[C@@H]2c2ccc(F)cc2F)C[C@H](C)[C@@]1(O)c1ccccc1")
5.29
>>> result("C[C@@H]1CN(C(=O)[C@@H]2CN(C(C)(C)C)C[C@H]2c2ccc(F)cc2F)C[C@H](C)[C@@]1(O)c1c(F)cccc1F")
5.30
>>> result("C[C@@H]1CN(C(=O)[C@@H]2CNC[C@H]2c2ccc(F)cc2F)C[C@H](C)[C@@]1(O)c1ccccc1")
5.18

Please examine the following record next.
Any idea what pKi was measured for "C[C@@H]1CN(C(=O)[C@@H]2CN(C(C)(C)C)C[C@H]2c2ccc(F)cc2F)C[C@H](C)[C@@]1(O)c1ccccn1" ?
5.23

###

molecular target: Melanocortin receptor 4 (Homo sapiens, UniProt P32245); experiment: Agonist activity at human recombinant MC4 receptor expressed in CHO cells by cAMP responsive beta lactamase reporter gene assay
Sequence (P32245 whole entry): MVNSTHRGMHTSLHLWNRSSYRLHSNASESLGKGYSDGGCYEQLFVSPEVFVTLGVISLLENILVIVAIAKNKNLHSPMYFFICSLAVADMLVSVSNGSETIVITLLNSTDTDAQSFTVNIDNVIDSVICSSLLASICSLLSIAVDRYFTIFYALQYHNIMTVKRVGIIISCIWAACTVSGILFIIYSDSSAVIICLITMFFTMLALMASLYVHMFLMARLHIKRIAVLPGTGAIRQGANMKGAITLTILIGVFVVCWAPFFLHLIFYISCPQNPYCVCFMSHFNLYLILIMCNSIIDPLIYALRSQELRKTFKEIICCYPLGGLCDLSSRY
MEASURED_METRIC: pEC50
Answer as the number alone; pEC50 is minus log10 of concentration in mol/L.

A selection of reference data follows.
>>> result("C[C@@H]1CN(C(=O)[C@@H]2CN(C(C)(C)C)C[C@H]2c2ccc(F)cc2F)C[C@H](C)[C@@]1(O)c1ccc(C#N)cc1")
6.46
>>> result("C[C@@H]1CN(C(=O)[C@H]2CN(C3CC3)C[C@@H]2c2ccc(F)cc2F)C[C@H](C)[C@@]1(O)c1ccccc1")
7.26

Could you share which pEC50 value was measured for "C[C@@H]1CN(C(=O)[C@H]2CN(c3cnccn3)C[C@@H]2c2ccc(F)cc2F)C[C@H](C)[C@@]1(O)c1ccccc1" ?
6.95

Note, next up: "C[C@@H]1CN(C(=O)[C@@H]2CN(C(C)(C)C)C[C@H]2c2ccc(F)cc2F)C[C@H](C)[C@@]1(O)c1ccc(F)c(F)c1"
7.82

And what about the compound "C[C@@H]1CN(C(=O)[C@@H]2CN(C)C[C@H]2c2ccc(F)cc2F)C[C@H](C)[C@@]1(O)c1ccccc1" ?
6.14

Also "C[C@@H]1CN(C(=O)[C@@H]2CN(C(C)(C)C)C[C@H]2c2ccc(F)cc2F)C[C@H](C)[C@@]1(O)c1cccc(C#N)c1" ?
6.19

Likewise for "C[C@@H]1CN(C(=O)[C@@H]2CNC[C@H]2c2ccc(F)cc2F)C[C@H](C)[C@@]1(O)c1ccccc1" ?
6.34

Input "CC(C)(C)N1C[C@@H](C(=O)N2CCC(O)(c3ccccc3)CC2)[C@H](c2ccc(F)cc2F)C1"
5.93

Thanks! And "C[C@@H]1CN(C(=O)[C@@H]2CN(C(C)(C)C)C[C@H]2c2ccc(F)cc2F)C[C@H](C)[C@@]1(O)c1cccc(F)c1" ?
8.22

One more compound: "C[C@@H]1CN(C(=O)[C@H]2CN(c3cccnc3)C[C@@H]2c2ccc(F)cc2F)C[C@H](C)[C@@]1(O)c1ccccc1"
8.30

Next: "CC(C)[C@@]1(O)[C@H](C)CN(C(=O)[C@H]2CN(c3cccnn3)C[C@@H]2c2ccc(F)cc2F)C[C@@H]1C"
7.05
